Catalogue of compounds with associated pKi
target: 5-hydroxytryptamine receptor 2A (Rattus norvegicus); experiment: Displacement of [3H]ketanserin from 5HT2A in rat brain cerebral cortex after 20 mins by scintillation counting; type: tissue-based
Sequence (P14842 whole entry): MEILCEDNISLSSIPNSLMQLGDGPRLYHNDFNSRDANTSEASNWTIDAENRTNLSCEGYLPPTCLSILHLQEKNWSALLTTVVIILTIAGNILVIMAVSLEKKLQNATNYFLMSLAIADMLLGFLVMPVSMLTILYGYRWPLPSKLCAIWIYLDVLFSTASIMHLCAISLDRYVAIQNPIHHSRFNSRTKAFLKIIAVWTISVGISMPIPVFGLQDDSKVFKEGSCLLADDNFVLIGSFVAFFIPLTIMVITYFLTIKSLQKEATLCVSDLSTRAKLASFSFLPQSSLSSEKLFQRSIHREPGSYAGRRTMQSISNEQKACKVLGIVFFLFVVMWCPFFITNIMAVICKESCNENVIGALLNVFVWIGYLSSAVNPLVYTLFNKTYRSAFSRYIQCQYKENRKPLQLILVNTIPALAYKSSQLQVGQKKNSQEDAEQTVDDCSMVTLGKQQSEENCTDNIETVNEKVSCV
Would you please state pKi, meaning minus log10 of the concentration in mol/L, as a bare number?

Worked examples, 8 compounds total:
INSERT INTO results (compound, assay_endpoint, reported_value) VALUES
  ('COc1ccc(C(=O)N[C@H]2CC3CC[C@H](C2)N3Cc2ccco2)cc1OC (single isomer, unassigned)', 'pKi', 5.10),
  ('O=C(N[C@@H]1CC2CC[C@H](C1)N2Cc1ccccc1)c1cccc2ccccc12 (single isomer, unassigned)', 'pKi', 6.40),
  ('COc1ccc(F)cc1C(=O)N[C@H]1CC2CC[C@H](C1)N2Cc1ccco1 (single isomer, unassigned)', 'pKi', 5.85),
  ('COc1ccc(Cl)cc1C(=O)N[C@@H]1CC2CC[C@H](C1)N2CC1CCCO1 (single isomer, unassigned)', 'pKi', 6.92),
  ('COc1ccc(OC)c(C(=O)N[C@H]2CC3CC[C@H](C2)N3Cc2ccco2)c1 (single isomer, unassigned)', 'pKi', 5.96),
  ('COc1ccc(C(=O)N[C@H]2CC3CC[C@H](C2)N3Cc2ccco2)c(OC)c1 (single isomer, unassigned)', 'pKi', 5.89),
  ('COc1cc(OC)cc(C(=O)N[C@H]2CC3CC[C@H](C2)N3Cc2ccco2)c1 (single isomer, unassigned)', 'pKi', 6.03),
  ('COc1cccc(C(=O)N[C@@H]2CC3CC[C@H](C2)N3Cc2ccco2)c1OC (single isomer, unassigned; 4b)', 'pKi', 6.13);

Task: Could you share which pKi value was measured for O=C(N[C@H]1CC2CC[C@H](C1)N2CC1CCCO1)c1ccccc1 (single isomer, unassigned) ?
Output: 5.51

Task: Next: COc1ccc(F)cc1C(=O)N[C@@H]1CC2CC[C@H](C1)N2CC1CCCO1 (single isomer, unassigned)
Output: 5.96

Task: Next: O=C(N[C@H]1CC2CC[C@H](C1)N2Cc1ccco1)c1ccc(Cl)cc1[N+](=O)[O-] (single isomer, unassigned)
Output: 4.49

###

The following molecules each carry a recorded Ki for 5-hydroxytryptamine receptor 2A (Rattus norvegicus, UniProt P14842).
Give just the numeric value; nM need not be written.

INSERT INTO measurements (molecule, readout_unit, reported_value) VALUES
  ('O=C(N[C@@H]1CC2CC[C@H](C1)N2Cc1ccccc1)c1ccc2ccccc2c1 (single isomer, unassigned)', 'nM', 2.5),
  ('COc1cccc(C(=O)N[C@H]2CC3CC[C@H](C2)N3CC2CCCO2)c1 (single isomer, unassigned)', 'nM', 1100);

Task: Could you share which Ki value was measured for COc1ccc(F)cc1C(=O)N[C@H]1C[C@H]2CC[C@@H](C1)N2Cc1ccco1 (stereo in doubt; 14b) ?
Output: 7000

Task: Next: O=C(N[C@H]1CC2CC[C@H](C1)N2Cc1ccco1)c1ccc2ccccc2c1 (single isomer, unassigned)
Output: 24.1

Task: Next: O=C(N[C@@H]1CC2CC[C@H](C1)N2CC1CCCO1)c1ccc2ccccc2c1 (single isomer, unassigned)
Output: 12.3

###

species on record: Mus musculus; conditions: Swiss albino, 5 mg/kg
Description: Hypothermic effect in Swiss albino mouse assessed as change in body temperature at 5 mg/kg, ip measured after 90 mins
Assay endpoint: deltaT
Number first, unit second: that is the form wanted.

Worked examples, 3 compounds total:
INSERT INTO results (compound, reported_value) VALUES
  ('COc1cc(N)c(Cl)cc1C(=O)N[C@H]1CC2CC[C@H](C1)N2Cc1ccco1 (single isomer, unassigned)', '0.1 °C'),
  ('COc1cc(N)c(Cl)cc1C(=O)N[C@@H]1CC2CC[C@H](C1)N2CC1CCCO1 (single isomer, unassigned)', '0 °C'),
  ('O=C(N[C@@H]1CC2CC[C@H](C1)N2Cc1ccccc1)c1ccc2ccccc2c1 (single isomer, unassigned)', '-0.6 °C');

With those in mind, consider the next compound.
Task: Could you share which deltaT value was measured for O=C(N[C@H]1CC2CC[C@H](C1)N2Cc1ccco1)c1ccc2ccccc2c1 (single isomer, unassigned) ?
Output: 0.1 °C

###

The following molecules each carry a recorded pKi for UniProtKB P14842.
Would you please state pKi, meaning minus log10 of the concentration in mol/L, as a bare number?

Worked examples, 3 molecules total:
INSERT INTO results (molecule, assay_endpoint, reported_value) VALUES
  ('O=C(N[C@H]1CC2CC[C@H](C1)N2Cc1ccco1)c1cccc2ccccc12 (single isomer, unassigned)', 'pKi', 5.64),
  ('COc1cc(N)c(Cl)cc1C(=O)N[C@@H]1CC2CC[C@H](C1)N2CC1CCCO1 (single isomer, unassigned)', 'pKi', 8.21),
  ('O=C(N[C@@H]1CC2CC[C@H](C1)N2CC1CCCO1)c1cccc2ccccc12 (single isomer, unassigned)', 'pKi', 6.40);

Task: Could you share which pKi value was measured for COc1cc(Cl)ccc1C(=O)N[C@H]1CC2CC[C@H](C1)N2Cc1ccco1 (single isomer, unassigned) ?
Output: 6.17

Task: Next: COc1ccccc1C(=O)N[C@H]1CC2CC[C@H](C1)N2Cc1ccco1 (single isomer, unassigned)
Output: 5.22

Task: Next: COc1cccc(C(=O)N[C@@H]2CC3CC[C@H](C2)N3Cc2cccnc2)c1OC (single isomer, unassigned)
Output: 6.02

Task: Next: COc1cc(N)c(Cl)cc1C(=O)N[C@H]1CC2CC[C@H](C1)N2Cc1ccco1 (single isomer, unassigned)
Output: 7.78

###

Catalogue of molecules with associated Ki
target: D(2) dopamine receptor (Rattus norvegicus); assay: Displacement of [3H]spiperone from dopamine D2 receptor in rat striatum tissue after 20 mins by scintillation counting; format: tissue-based
Give just the numeric value; µM need not be written.

Worked examples, 2 molecules total:
INSERT INTO measurements (molecule, assay_endpoint, readout_unit, reported_value) VALUES
  ('O=C(N[C@H]1CC2CC[C@H](C1)N2Cc1ccco1)c1ccc(Cl)cc1[N+](=O)[O-] (single isomer, unassigned)', 'Ki', 'µM', 19),
  ('COc1cc(Cl)ccc1C(=O)N[C@H]1CC2CC[C@H](C1)N2Cc1ccco1 (single isomer, unassigned)', 'Ki', 'µM', 0.174);

Task: Could you share which Ki value was measured for O=C(N[C@@H]1CC2CC[C@H](C1)N2CC1CCCO1)c1cccc2ccccc12 (single isomer, unassigned) ?
Output: 4

###

target: D(2) dopamine receptor (Rattus norvegicus, UniProt P61169); experiment: Displacement of [3H]spiperone from dopamine D2 receptor in rat striatum tissue after 20 mins by scintillation counting
Sequence (P61169 whole entry): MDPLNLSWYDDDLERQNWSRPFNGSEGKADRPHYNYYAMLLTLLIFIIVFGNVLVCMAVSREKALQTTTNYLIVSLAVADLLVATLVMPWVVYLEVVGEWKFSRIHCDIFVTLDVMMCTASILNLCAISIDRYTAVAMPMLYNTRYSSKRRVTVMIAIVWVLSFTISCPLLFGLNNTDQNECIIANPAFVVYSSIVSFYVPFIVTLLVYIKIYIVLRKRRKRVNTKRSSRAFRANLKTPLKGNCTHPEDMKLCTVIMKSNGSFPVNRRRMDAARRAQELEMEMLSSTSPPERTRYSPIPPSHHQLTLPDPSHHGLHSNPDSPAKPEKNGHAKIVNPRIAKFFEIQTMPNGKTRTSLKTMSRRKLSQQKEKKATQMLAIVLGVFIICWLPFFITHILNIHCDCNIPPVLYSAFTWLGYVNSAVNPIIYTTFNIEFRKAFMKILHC
Assay endpoint: Ki

INSERT INTO results (compound, assay_target, reported_value) VALUES
  ('COc1ccc(OC)c(C(=O)N[C@H]2CC3CC[C@H](C2)N3Cc2ccco2)c1 (single isomer, unassigned)', 'D(2) dopamine receptor (Rattus norvegicus, UniProt P61169)', '1100 nM'),
  ('COc1ccc(F)cc1C(=O)N[C@H]1CC2CC[C@H](C1)N2Cc1ccco1 (single isomer, unassigned)', 'D(2) dopamine receptor (Rattus norvegicus, UniProt P61169)', '507 nM'),
  ('COc1ccc(F)cc1C(=O)N[C@@H]1CC2CC[C@H](C1)N2CC1CCCO1 (single isomer, unassigned)', 'D(2) dopamine receptor (Rattus norvegicus, UniProt P61169)', '12400 nM'),
  ('COc1ccc(C(=O)N[C@H]2CC3CC[C@H](C2)N3Cc2ccco2)cc1OC (single isomer, unassigned)', 'D(2) dopamine receptor (Rattus norvegicus, UniProt P61169)', '68800 nM'),
  ('COc1cccc(C(=O)N[C@@H]2CC3CC[C@H](C2)N3Cc2ccccn2)c1OC (single isomer, unassigned)', 'D(2) dopamine receptor (Rattus norvegicus, UniProt P61169)', '9.3 nM'),
  ('COc1ccc(C(=O)N[C@H]2CC3CC[C@H](C2)N3Cc2ccco2)c(OC)c1 (single isomer, unassigned)', 'D(2) dopamine receptor (Rattus norvegicus, UniProt P61169)', '652 nM'),
  ('COc1ccc(F)cc1C(=O)N[C@H]1C[C@H]2CC[C@@H](C1)N2Cc1ccco1 (stereo in doubt; 14b)', 'D(2) dopamine receptor (Rattus norvegicus, UniProt P61169)', '44000 nM'),
  ('O=C(N[C@H]1CC2CC[C@H](C1)N2CC1CCCO1)c1ccccc1 (single isomer, unassigned)', 'D(2) dopamine receptor (Rattus norvegicus, UniProt P61169)', '> 100000 nM');

Task: Could you share which Ki value was measured for COc1cccc(C(=O)N[C@@H]2CC3CC[C@H](C2)N3Cc2ccncc2)c1OC (single isomer, unassigned) ?
Output: 28.3 nM

Task: Next: COc1cccc(C(=O)N[C@H]2CC3CC[C@H](C2)N3CC2CCCO2)c1 (single isomer, unassigned)
Output: > 100000 nM

Task: Next: COc1cc(OC)cc(C(=O)N[C@H]2CC3CC[C@H](C2)N3Cc2ccco2)c1 (single isomer, unassigned)
Output: 13200 nM

Task: Next: O=C(N[C@@H]1CC2CC[C@H](C1)N2Cc1ccccc1)c1cccc2ccccc12 (single isomer, unassigned)
Output: 2900 nM

Task: Next: COc1cc(N)c(Cl)cc1C(=O)N[C@@H]1CC2CC[C@H](C1)N2CC1CCCO1 (single isomer, unassigned)
Output: 103 nM

Task: Next: COc1ccccc1C(=O)N[C@H]1CC2CC[C@H](C1)N2Cc1ccco1 (single isomer, unassigned)
Output: 1000 nM

Task: Next: O=C(N[C@H]1CC2CC[C@H](C1)N2Cc1ccco1)c1ccc2ccccc2c1 (single isomer, unassigned)
Output: 203 nM
